# Lookup of reported IC50 keyed by entry
Molecular target: FAAH (Rattus norvegicus)
Construct: Preparation of Rat Brain Membranes Preparations (FAAH Enzyme Solution); from tissue; host or cells: rat cerebrum (brain membrane preparation)
Assay: Determination of FAAH inhibitory activity in rat (rat brain membrane preparations, [3H]-anandamide hydrolysis)
Type: biochemical
Conditions: rat brain membrane preparations; test substance 0.1 nM to 1 μM; read-out: FAAH Inhibition IC50
Write the answer as a number in µM, unit excluded.

Completed entries (count: 3):
COc1ccccc1Cc1ncc2c(n1)n(C)c(=O)n2C(=O)N1CCCC1 0.058
Cc1cccc(N2CCN(C(=O)n3c(=O)n(C)c4nc(-c5ccccc5)ncc43)CC2)n1 0.019
CN(C)C(=O)n1c(=O)n(C)c2cnc(-c3cccc(OCC(F)F)c3)nc21 0.033

Requested field: IC50. Item: `Cc1cccc(OCc2ncc3c(n2)n(C(=O)N2CCC2)c(=O)n3C)c1`
0.033

Also need `CCCCc1ncc2c(n1)n(C)c(=O)n2C(=O)N(C)CC` , thanks.
0.019

###

# Lookup of reported pIC50 keyed by entry
Molecular target: FAAH (Rattus norvegicus)
Construct: Preparation of Rat Brain Membranes Preparations (FAAH Enzyme Solution); from tissue; host or cells: rat cerebrum (brain membrane preparation)
Assay: Determination of FAAH inhibitory activity in rat (rat brain membrane preparations, [3H]-anandamide hydrolysis)
Assay type: biochemical
Details: rat brain membrane preparations; test substance 0.1 nM to 1 μM; read-out: FAAH Inhibition IC50
// pIC50 here means minus log10 of the molar concentration (mol/L)

COc1cccc(-c2ncc3c(n2)n(C)c(=O)n3C(=O)N(C)CCC2CCOCC2)c1 8.40
COc1cccc(-c2ncc3c(n2)n(C)c(=O)n3C(=O)N(C)CCOc2ccc(Cl)cc2)c1 8.52
COCc1ncc2c(n1)n(C)c(=O)n2C(=O)N1CC(Oc2ccccc2C)C1 6.93
CN(C)C(=O)n1c(=O)n(C)c2cnc(CCc3ccc(F)cc3)nc21 7.00
COc1cccc(-c2ncc3c(n2)n(C)c(=O)n3C(=O)N2CC=C(/C=C/c3ccc(Cl)cc3)CC2)c1 8.15

Tell me the measured pIC50 of `Cn1c(=O)n(C(=O)N2CCCC2)c2cnc(-c3cccc([N+](=O)[O-])c3)nc21` , please.
7.62

Same question, `COCc1ncc2c(n1)n(C)c(=O)n2C(=O)N1CC(c2ccccc2Cl)C1` this time
7.92

Also, `CCN(C)C(=O)n1c(=O)n(C)c2nc(Cc3ccc(OC)cc3)ncc21` please.
7.96

Ok, now `O=C(N1CCCC1)n1c(=O)[nH]c2nc(-c3ccccc3)ncc21`
7.64

Continue with `Cn1c(=O)n(C(=O)N2CCCC2)c2cnc(-c3ccnc(Cl)c3)nc21`
7.74

Cool, now `CN(C)C(=O)n1c(=O)n(C)c2cnc(CCc3cccc(F)c3F)nc21`
7.70

Query `COc1ccc(F)c(-c2ncc3c(n2)n(C)c(=O)n3C(=O)N2CCCC2)c1` next
7.52

Now give it for `COCc1ncc2c(n1)n(C)c(=O)n2C(=O)N1CC(c2cccc(OC)c2)C1` too.
8.05

###

Biological target: FAAH (Rattus norvegicus, UniProt P97612)
Construct: Preparation of Rat Brain Membranes Preparations (FAAH Enzyme Solution); from tissue; host or cells: rat cerebrum (brain membrane preparation)
Sequence (P97612 1-579): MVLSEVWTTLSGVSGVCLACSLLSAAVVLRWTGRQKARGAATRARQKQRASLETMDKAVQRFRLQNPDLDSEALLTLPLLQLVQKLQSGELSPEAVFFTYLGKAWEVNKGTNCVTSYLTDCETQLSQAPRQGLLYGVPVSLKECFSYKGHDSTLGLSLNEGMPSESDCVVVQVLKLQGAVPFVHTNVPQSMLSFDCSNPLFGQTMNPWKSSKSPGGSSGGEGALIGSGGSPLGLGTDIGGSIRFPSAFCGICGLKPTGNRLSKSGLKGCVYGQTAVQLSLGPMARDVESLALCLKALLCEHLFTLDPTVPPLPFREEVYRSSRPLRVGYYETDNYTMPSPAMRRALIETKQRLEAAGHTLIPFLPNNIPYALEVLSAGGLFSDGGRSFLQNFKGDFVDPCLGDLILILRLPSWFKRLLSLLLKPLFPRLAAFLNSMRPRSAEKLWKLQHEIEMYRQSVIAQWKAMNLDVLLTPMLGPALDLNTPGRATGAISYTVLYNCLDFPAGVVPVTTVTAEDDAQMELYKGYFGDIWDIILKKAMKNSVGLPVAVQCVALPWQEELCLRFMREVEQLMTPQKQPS
Experiment: Determination of FAAH inhibitory activity in rat (rat brain membrane preparations, [3H]-anandamide hydrolysis)
Format: biochemical
Details: rat brain membrane preparations; test substance 0.1 nM to 1 μM; read-out: FAAH Inhibition IC50
# IC50 binned as lower bin (below 9 nM), middle bin (9 nM to below 40 nM), upper bin (40 nM or more)

Example results:
CN(CCOc1ccc(Cl)cc1)C(=O)n1c(=O)n(C)c2nc(-c3cccnc3)ncc21 lower bin
Cn1c(=O)n(C(=O)N2CCCCCC2)c2cnc(-c3ccccc3)nc21 upper bin
CCOc1ccc(N2CCN(C(=O)n3c(=O)n(C)c4nc(-c5ccncc5)ncc43)CC2)cc1 lower bin

Entry `O=C(N1CCCC1)n1c(=O)n(CCN2CCCC2)c2nc(-c3ccccc3)ncc21` belongs to which category?
upper bin

Could you do the same for `Cc1cccc(OCCCc2ncc3c(n2)n(C(=O)N(C)C)c(=O)n3C)c1` , please?
middle bin

Try this compound too: `COCc1ncc2c(n1)n(C)c(=O)n2C(=O)N1CC(c2ccc(OC(F)(F)F)cc2)C1`
lower bin

Same question, `COc1cccc(-c2ncc3c(n2)n(C)c(=O)n3C(=O)N2CCN(Cc3cccc(F)c3)CC2)c1` this time
middle bin

Similarly, `CCN(C)C(=O)n1c(=O)n(C)c2nc(Cc3cccc(OC)c3)ncc21` ?
lower bin

Input `Cn1c(=O)n(C(=O)N2CCCC2)c2cnc(-c3ccccc3F)nc21`
middle bin

Moving on to `Cc1ccccc1OCc1ncc2c(n1)n(C(=O)N1CCC1)c(=O)n2C`
upper bin

Record: `Cc1cccc(-c2ncc3c(n2)n(C)c(=O)n3C(=O)N2CCCC2)c1`
lower bin

Further, for `COc1cccc(-c2ncc3c(n2)n(C)c(=O)n3C(=O)N(C)Cc2ccccc2)c1` ?
upper bin

Here is the next compound: `Cc1ccccc1Cc1ncc2c(n1)n(C)c(=O)n2C(=O)N1CCCC1`
upper bin

What would you report for `COc1ccc(-c2ncc3c(n2)n(C(=O)N2CCCC2)c(=O)n3C)cn1` ?
upper bin

###

Target: FAAH (Rattus norvegicus, UniProt P97612)
Construct: Preparation of Rat Brain Membranes Preparations (FAAH Enzyme Solution); from tissue; host or cells: rat cerebrum (brain membrane preparation)
Experiment: Determination of FAAH inhibitory activity in rat (rat brain membrane preparations, [3H]-anandamide hydrolysis)
Assay type: biochemical
Settings: rat brain membrane preparations; read-out: FAAH Inhibition IC50
Please assign Condition not met whenever IC50 is at or above 10 nM, and Condition met whenever it is below.

As a guide, the following entries are already answered.
Cn1c(=O)n(C(=O)N2CC(c3ccccc3)C2)c2cnc(C3CC3)nc21 Condition met
CCCc1ncc2c(n1)n(C(=O)N1CC(c3ccc(F)cc3)C1)c(=O)n2C Condition not met
CCn1c(=O)n(C(=O)N2CC(c3cccc(F)c3)C2)c2cnc(COC)nc21 Condition met

Below 10 nM on IC50? Entry `CCCn1c(=O)n(C(=O)N2CC(c3cccc(C(F)(F)F)c3)C2)c2cnc(COC)nc21`
Condition met

Moving on to `CCn1c(=O)n(C(=O)N(C)C)c2nc(CCc3ccc(F)cc3)ncc21`
Condition not met

###

# key: entry, value: inhibition at 0.1 µM
Biological target: FAAH (Rattus norvegicus)
Construct: Preparation of Rat Brain Membranes Preparations (FAAH Enzyme Solution); from tissue; host or cells: rat cerebrum (brain membrane preparation)
Assay: Determination of FAAH inhibitory activity in rat (rat brain membrane preparations, [3H]-anandamide hydrolysis)
Type: biochemical
Settings: rat brain membrane preparations; 100 nM test substance; read-out: FAAH Inhibition, Inhibition Rate at 100 nM
Just the number in %, nothing appended.

Study these solved cases before continuing.
COCc1ncc2c(n1)n(C)c(=O)n2C(=O)N1CC(c2ccc(OC(F)(F)F)cc2)C1 120
Cn1c(=O)n(C(=O)N2CCCC2)c2cnc(Cc3ccc(F)cc3F)nc21 92
Cn1c(=O)n(C(=O)N2CCC2)c2cnc(COc3cccc(OC(F)F)c3)nc21 96

Please state recorded inhibition at 0.1 µM (tested on FAAH (Rattus norvegicus)) of `COc1cccc(-c2ncc3c(n2)n(C)c(=O)n3C(=O)N(C)CCOc2ccccc2)c1`
98

Now give it for `Cn1c(=O)n(C(=O)N2CCCC2)c2nc(CCc3ccc(C(F)(F)F)cc3)ncc21` too.
99

`Cn1c(=O)n(C(=O)N2CCN(c3ccccc3F)CC2)c2cnc(-c3ccccc3)nc21` ?
96

And what about the compound `COCc1ncc2c(n1)n(C)c(=O)n2C(=O)N1CC(Oc2ccccc2F)C1` ?
50

Now consider `Cn1c(=O)n(C(=O)N2CCCC2)c2cnc(-c3ccc(-c4ccccc4)cc3)nc21` and answer again.
97
